- System: PC-3 prostate
- method: NCI tumour cell line growth inhibition, 48 h
Is TGI at least 20 µM? Then t. If not, f.

API: above_or_equal(metric=TGI, cutoff=20 µM) for item `C[N+](C)(CCNC(=O)c1cccc2cc3ccccc3nc12)Cc1ccc([N+](=O)[O-])s1`
t

API: above_or_equal(metric=TGI, cutoff=20 µM) for item `O=C(CSc1nc2ccccc2c(=O)n1-c1ccccc1)N=Nc1c(O)[nH]c2ccc(F)cc12`
f

API: above_or_equal(metric=TGI, cutoff=20 µM) for item `[N-]=[N+]=C(C(=O)N1CCCC1=O)S(=O)(=O)c1ccccc1`
t

API: above_or_equal(metric=TGI, cutoff=20 µM) for item `O=C(O)C(Oc1nc(=S)[nH]c(=S)[nH]1)(c1ccc(Cl)cc1)c1ccc(Cl)cc1`
t

API: above_or_equal(metric=TGI, cutoff=20 µM) for item `COc1ccc(C(=O)/C=C/c2cc(O)c(O)cc2F)c(OC)c1`
t

###

- System: SK-MEL-5 melanoma
- method: NCI tumour cell line growth inhibition, 48 h; in the data active = GI50 below about 0.43 µM; inactive = the rest
Field 'call' accepts class 1 (active), class 0 (inactive)

smilestext=Cc1ccc([C@]2(C)CC[C@H](C)/C2=C\Br)c(O)c1 classification="class 0"

Per the assay record, what outcome was assigned to `Cc1cc(C(=O)c2ccccc2)c(C)c2c1[nH]c1ccc(Cl)cc12` ?
class 1

Per the assay record, what outcome was assigned to `CC(=O)[CH-]C(=O)c1ccccc1.CC(=O)[CH-]C(=O)c1ccccc1.CC[O-].O=C1c2ccccc2C(=O)c2c1ccc(O)c2[O-].[Ti+4]` ?
class 0

Per the assay record, what outcome was assigned to `O=Nc1c(-c2c(O)[nH]c3ccc(Br)cc23)[nH]c2ccccc12` ?
class 0

Per the assay record, what outcome was assigned to `COc1ccc2nc3cc(Cl)ccc3c(NCCNc3c4ccc(Cl)cc4nc4ccc(OC)cc34)c2c1` ?
class 0

Per the assay record, what outcome was assigned to `CCCCCCCCCCCCCCCC1=NC(C)(C)CN1C(C)C` ?
class 0

###

- Tested on: NCI/ADR-RES ovarian
- method: NCI tumour cell line growth inhibition, 48 h
Is TGI at least 30 µM? Then MET. If not, NOT MET.

The examples below pair each entry with its known result.
molecule=CC1(C)C(=O)/C(=C\c2cccnc2)C[C@]2(C)[C@H]3CC[C@@H]4[C@@H](C(=O)/C=C/c5ccncc5)CC[C@@]4(C)[C@]3(C)CC[C@@H]12 classification="NOT MET"
molecule=CCOC(=O)N1CCC(=C2c3ccc(Cl)cc3CCc3cccnc32)CC1 classification="NOT MET"
molecule=CC(C)(C)c1ccc(NS(=O)(=O)c2ccc3nc(NC(=O)c4cnccn4)[nH]c3c2)cc1 classification="NOT MET"
molecule=Cc1sc2nc3n(c(=O)c2c1C)N=CN(c1ccc(F)cc1)C3 classification=MET
molecule="Cc1ccc(Sc2cc3c(oc2=O)-c2ccccc2OC3O)cc1 (centres undefined)" classification=MET

API: above_or_equal(metric=TGI, cutoff=30 µM) for item `COc1ccc(C2=NN=C3C(c4ccccc4)=Nc4ccccc4N3C2)cc1`
MET

API: above_or_equal(metric=TGI, cutoff=30 µM) for item `CC[C@H](C)C(=O)O[C@H]1C[C@H](O)C=C2C=C[C@H](C)[C@H](CC[C@@H](O)C[C@@H](O)CC(=O)O)[C@H]21`
MET

API: above_or_equal(metric=TGI, cutoff=30 µM) for item `Fc1cc(-c2cc(-c3ccc4c(c3)OCO4)n[nH]2)c(Cl)cc1Cl`
NOT MET
